system: foxtail, giant (giant foxtail, Setaria faberi); experiment: Test C postemergence, visual plant response rating; format: in vivo; settings: Postemergence, 31 g ai/ha
For each of the compounds below, state its Foxtail, Giant plant response rating (0 to 100 scale).
Give bare numbers.

>  <compound>
CON=C(c1cc(F)cc(F)c1F)c1c(O)c(C)nn(C)c1=O [Compound 226]

>  <experimental_value>
30

$$$$
>  <compound>
CO/N=C(\c1c(O)c(C)nn(C)c1=O)c1cc(SC)cc2ccccc12 [Compound 279]

>  <experimental_value>
0

$$$$
>  <compound>
Cc1nn(C)c(=O)c(/C(=N/OC(C)C)c2cc(Cl)cc(Cl)c2Cl)c1O [Compound 185]

>  <experimental_value>
60

$$$$
>  <compound>
CON=C(c1cc(Cl)cc(F)c1Cl)c1c(O)c(C)nn(C)c1=O [Compound 271]

>  <experimental_value>
70

$$$$
>  <compound>
C#CCO/N=C(\c1cccc(/C=C/Cl)c1)c1c(O)c(C)nn(C)c1=O [Compound 254]

>  <experimental_value>
20

$$$$
>  <compound>
C#CCO/N=C(/c1ccc(F)c(Br)c1)c1c(O)c(C)nn(C)c1=O [Compound 163]

>  <experimental_value>
20

$$$$
>  <compound>
Cc1nn(C)c(=O)c(/C(=N/OC(C)C)c2cccc3cc(Cl)ccc23)c1O [Compound 245]

>  <experimental_value>
30

$$$$
>  <compound>
CCO/N=C(\c1cc(Cl)cc(Cl)c1Cl)c1c(O)c(C)nn(C)c1=O [Compound 186]

>  <experimental_value>
60

$$$$

**Q:** So what Foxtail, Giant plant response rating (0 to 100 scale) did C#CCO/N=C(\c1ccc(F)c(Br)c1)c1c(O)c(C)nn(C)c1=O [Compound 164] get with foxtail, giant (giant foxtail, Setaria faberi)?
**A:** 10
